- System: A549-ACE2
- Assay Text: drug-induced phospholipidosis relative to tamoxifen; higher = more phospholipidosis
- Assay Setup: 3.33333 µM; 24 h
Result Type: drug-induced phospholipidosis (%)

Molecule	Observed
CN(C)c1ccccc1CN1CCCN(Cc2ccccc2N(C)C)C1c1ccncc1 [GANT-61]	60.1
CCN(CC)CCOc1ccc2c(c1)C(=O)c1cc(OCCN(CC)CC)ccc1-2 [tilorone]	-21.7
COc1ccc2cc1Oc1ccc(cc1)C[C@H]1c3c(cc4c(c3Oc3cc5c(cc3OC)CCN(C)[C@@H]5C2)OCO4)CCN1C [cepharanthine]	21.4
CCN(CC)CCOC(=O)C1(C2CCCCC2)CCCCC1 [dicycloverine]	4.06
Cc1c(-c2ccc(O)cc2)n(Cc2ccc(OCCN3CCCCCC3)cc2)c2ccc(O)cc12 [bazedoxifene]	23.7
Clc1ccc(N/N=C(\c2ccccc2)c2ccccn2)nc1 [JIB04]	-2.31

* * *

- Test system: A549-ACE2
- Assay Text: drug-induced phospholipidosis relative to tamoxifen; higher = more phospholipidosis
- Assay Setup: 3.33333 µM; 48 h

Compound	Target Or Test System	Unit Of Measure	drug-induced phospholipidosis
CC[C@@H](C)CNCC(=O)N1CCc2sccc2[C@@H]1COc1cccc(C)c1	A549-ACE2	%	27.3
COc1ccc2cc1Oc1ccc(cc1)C[C@H]1c3c(cc4c(c3Oc3cc5c(cc3OC)CCN(C)[C@@H]5C2)OCO4)CCN1C	A549-ACE2	%	19.4
CSc1ccc2c(c1)N(CCC1CCCCN1C)c1ccccc1S2 (centres undefined)	A549-ACE2	%	28.5
COc1cccc(CCc2ccccc2OCC[C@@H]2C[C@@H](O)CN2C)c1	A549-ACE2	%	45.9

* * *

- Test system: Caco-2
- Assay Text: cell viability relative to DMSO; higher = less toxic
- Assay Setup: 72 h; 1 nM
Result Type: cell viability

Compound	Result Type	Observed
Cc1cc(O)c2c(c1)C(=O)c1cc(O)cc(O)c1C2=O	cell viability	95.4%
CC1Oc2cc(cnc2N)-c2c(nn(C)c2C#N)CN(C)C(=O)c2ccc(F)cc21 (configuration not stated)	cell viability	89.2%
Nc1nc(N)c(N=O)c(OCC2CCCCC2)n1	cell viability	100%
C#Cc1cccc(Nc2ncnc3cc(OCCOC)c(OCCOC)cc23)c1	cell viability	105%
CC1(C)CCC2=C(O1)c1ccccc1C(=O)C2=O	cell viability	101%
O=C(/C=C\n1cnc(-c2cc(C(F)(F)F)cc(C(F)(F)F)c2)n1)NNc1cnccn1 [selinexor]	cell viability	97%
CNc1ncnc2c1ncn2[C@@H]1O[C@H](CO)[C@@H](O)[C@H]1O	cell viability	109%
N#Cc1ccc(N(Cc2ccc(Br)cc2)n2cnnc2)cc1	cell viability	108%
CC[C@H](C)[C@@H]1NC(=O)[C@H](Cc2ccc(OC)cc2)NC(=O)CCCSC[C@@H](C(=O)N2CCC[C@H]2C(=O)N[C@@H](CC(C)C)C(=O)NCC(N)=O)NC(=O)[C@H](CC(N)=O)NC(=O)[C@H](CCC(N)=O)NC1=O	cell viability	99.7%
C[C@@H](O[C@H]1OCCN(Cc2n[nH]c(=O)[nH]2)[C@H]1c1ccc(F)cc1)c1cc(C(F)(F)F)cc(C(F)(F)F)c1 [aprepitant]	cell viability	100%
CC1=C(/C=C/C(C)=C/C=C/C(C)=C/C=C/C=C(C)/C=C/C=C(C)/C=C/C2=C(C)C(=O)[C@@H](O)CC2(C)C)C(C)(C)C[C@H](O)C1=O	cell viability	103%
O=C1C(=Cc2cccnc2)C(=O)c2ccccc21	cell viability	107%
C[C@@H](O)[C@H]1C(=O)N2C(C(=O)O)=C(S[C@@H]3CN[C@H](C(=O)Nc4cccc(C(=O)O)c4)C3)[C@H](C)[C@H]12	cell viability	101%
Cc1cccc(C#Cc2ccccc2)n1	cell viability	98.7%
O=C(NS(=O)(=O)c1ccc(Br)s1)c1ccc(Cl)cc1Cl	cell viability	99.7%
COc1ccc2c(c1)CN(C)CC2c1ccc(Cl)c(Cl)c1 (configuration not stated)	cell viability	96.6%
COc1cccc2c1C(=O)c1c(O)c3c(c(O)c1C2=O)C[C@@](O)(C(=O)CO)C[C@@H]3O[C@H]1C[C@H](N2CCO[C@H](OC)C2)[C@H](O)[C@H](C)O1	cell viability	88.8%
COc1ccc2cc1Oc1ccc(cc1)C[C@H]1c3c(cc4c(c3Oc3cc5c(cc3OC)CCN(C)[C@@H]5C2)OCO4)CCN1C	cell viability	93.5%
C=CC(=O)Nc1cccc(Nc2nc(Nc3ccc(N4CCN(C(C)=O)CC4)cc3OC)ncc2C(F)(F)F)c1	cell viability	97.4%
COc1ccc(CCCO[C@@H](Cn2ccnc2)c2ccc(OC)cc2)cc1	cell viability	93.4%
CN(C)c1ccc(C(=O)NCCCCCCC(=O)NO)cc1	cell viability	101%
COc1cc(Br)c(S(=O)(=O)Nc2ccc(C(F)(F)F)c(O[C@@H]3CCN(C)C3)c2)cc1OC	cell viability	102%
O[C@@H](COc1cccc2ncccc12)CN1CCN([C@@H]2c3ccccc3[C@@H]3[C@H](c4ccccc42)C3(F)F)CC1	cell viability	99.5%
COc1cccc(N2CCN(C3=Nc4c(F)cccc4[C@H](CC(=O)O)N3c3cc(C(F)(F)F)ccc3OC)CC2)c1	cell viability	97.4%
Cc1c(CN(C)C(=O)/C=C/c2cnc3c(c2)CCC(=O)N3)oc2ccccc12	cell viability	95%
O=C(O)[C@H](Cc1ccc(Nc2nccc3ccncc23)cc1)NC1=C(Br)C(=O)C12CCCCC2	cell viability	97.5%
CC(=O)Nc1ccc(S(=O)(=O)c2ccc(NC(C)=O)cc2)cc1	cell viability	119%
CCCc1c(OCC(O)COc2ccc3c(=O)cc(C(=O)O)oc3c2CCC)ccc(C(C)=O)c1O (configuration not stated)	cell viability	99.1%
Cc1c(-c2ccc(O)cc2)n(Cc2ccc(OCCN3CCCCCC3)cc2)c2ccc(O)cc12	cell viability	104%
Cn1cc(-c2[nH]c3cc(NC(=O)[C@H](N)C4CCCCC4)cc4c3c2C=NNC4=O)cn1	cell viability	106%
CC1(N)CCN(c2cnc(-c3cccc(Cl)c3Cl)c(N)n2)CC1	cell viability	94.1%
CCCCCCCCOc1ccccc1C(=O)Nc1ccc(C(=O)OCC[N+](C)(CC)CC)cc1	cell viability	89.1%
